Where do the numbers come from? From paper PMC8008885.

Assay Protocol: Pharmacokinetics after intravenous and oral administration to SD rats
Assay type: in vivo, Sprague-Dawley (SD) male rats
Condition Notes: male, Sprague-Dawley, plasma; rat, oral, 10 mg/kg; median (range)
Metric Name: Tmax (h)
Answers are plain numbers, in h.

Consider the compound `C=CCOc1cccc2nc(N3CCCC3)ccc12` . State its measured Tmax. 1

====

Assay Protocol: Pharmacokinetics after intravenous and oral administration to SD rats
Assay type: in vivo, Sprague-Dawley (SD) male rats
Condition Notes: male, Sprague-Dawley, plasma; rat, intravenous, 10 mg/kg; read-out: Terminal half-life
Metric Name: half-life
Hi, when you answer, please include the unit after the number. Thanks!

Consider the compound C=CCOc1cccc2nc(N3CCCC3)ccc12 [APQ, 5-allyloxy-2-(pyrrolidin-1-yl)quinoline] . State its measured half-life. 153 min

====

Assay Protocol: Pharmacokinetics after intravenous and oral administration to SD rats
Format: in vivo, Sprague-Dawley (SD) male rats
Condition Notes: male, Sprague-Dawley, plasma; rat, oral, 10 mg/kg
Metric Name: Cmax (ng/mL)
Give bare numbers, in ng/mL.

Consider the molecule `C=CCOc1cccc2nc(N3CCCC3)ccc12` . State its measured Cmax. 40

====

Assay Protocol: Pharmacokinetics after intravenous and oral administration to SD rats
Format: in vivo, Sprague-Dawley (SD) male rats
Condition Notes: male, Sprague-Dawley; rat, oral, 10 mg/kg, plasma
Metric Name: AUC(0-inf) (ng·h/mL)
Answers are plain numbers, in ng·h/mL.

Consider the molecule C=CCOc1cccc2nc(N3CCCC3)ccc12 [APQ, 5-allyloxy-2-(pyrrolidin-1-yl)quinoline] . State its measured AUC(0-inf). 61.7

====

Assay Protocol: Pharmacokinetics after intravenous and oral administration to SD rats
Assay type: in vivo, Sprague-Dawley (SD) male rats
Condition Notes: male, Sprague-Dawley, plasma; rat, intravenous, 10 mg/kg
Metric Name: MRT

Consider the compound C=CCOc1cccc2nc(N3CCCC3)ccc12 [APQ, 5-allyloxy-2-(pyrrolidin-1-yl)quinoline] . State its measured MRT. 1.6 h

====

Assay Protocol: Pharmacokinetics after intravenous and oral administration to SD rats
Format: in vivo, Sprague-Dawley (SD) male rats
Condition Notes: male, Sprague-Dawley, brain; rat, intravenous, 10 mg/kg; read-out: Brain concentration at 2 h
Metric Name: concentration at 2 h (ng/mL)
Answers are plain numbers, in ng/mL.

Consider the molecule `C=CCOc1cccc2nc(N3CCCC3)ccc12` . State its measured concentration at 2 h. 407

====

Assay Protocol: Pharmacokinetics after intravenous and oral administration to SD rats
Type: in vivo, Sprague-Dawley (SD) male rats
Condition Notes: male, Sprague-Dawley, brain/plasma; rat, intravenous, 10 mg/kg; read-out: Brain-to-plasma (B/P) ratio at 2 h
Metric Name: Kp at 2 h
Answers are plain numbers.

Consider the molecule `C=CCOc1cccc2nc(N3CCCC3)ccc12` . State its measured Kp at 2 h. 4.18

====

Assay Protocol: Pharmacokinetics after intravenous and oral administration to SD rats
Assay type: in vivo, Sprague-Dawley (SD) male rats
Condition Notes: male, Sprague-Dawley, plasma; rat, intravenous, 10 mg/kg; read-out: Plasma concentration at 2 h
From the text: It is well known that the blood–brain barrier (BBB) is a key obstacle impeding the entry of drugs into the brain.
Metric Name: concentration at 2 h (ng/mL)
Answers are plain numbers, in ng/mL.

Consider the compound `C=CCOc1cccc2nc(N3CCCC3)ccc12` . State its measured concentration at 2 h. 100

====

Assay Protocol: Pharmacokinetics after intravenous and oral administration to SD rats
Assay type: in vivo, Sprague-Dawley (SD) male rats
Condition Notes: male, Sprague-Dawley, plasma; rat, intravenous, 10 mg/kg; read-out: Vss
Metric Name: Vd

Consider the compound C=CCOc1cccc2nc(N3CCCC3)ccc12 [APQ, 5-allyloxy-2-(pyrrolidin-1-yl)quinoline] . State its measured Vd. 25.6 L/kg

====

Assay Protocol: Pharmacokinetics after intravenous and oral administration to SD rats
Format: in vivo, Sprague-Dawley (SD) male rats
Condition Notes: male, Sprague-Dawley, brain/plasma; rat, oral, 10 mg/kg; read-out: Brain-to-plasma (B/P) ratio at 2 h
Metric Name: Kp at 2 h
One number for each entry.

Consider the molecule C=CCOc1cccc2nc(N3CCCC3)ccc12 [APQ, 5-allyloxy-2-(pyrrolidin-1-yl)quinoline] . State its measured Kp at 2 h. 0.44

====

Assay Protocol: Pharmacokinetics after intravenous and oral administration to SD rats
Type: in vivo, Sprague-Dawley (SD) male rats
Condition Notes: male, Sprague-Dawley, plasma; rat, oral vs intravenous, 10 mg/kg; read-out: F (bioavailability)
Metric Name: bioavailability (%)
One number for each entry, in %.

Consider the molecule `C=CCOc1cccc2nc(N3CCCC3)ccc12` . State its measured bioavailability. 6.7

====

Assay Protocol: Pharmacokinetics after intravenous and oral administration to SD rats
Type: in vivo, Sprague-Dawley (SD) male rats
Condition Notes: male, Sprague-Dawley, plasma; rat, oral, 10 mg/kg; read-out: Terminal half-life
Metric Name: half-life
Hi, when you answer, please include the unit after the number. Thanks!

Consider the compound C=CCOc1cccc2nc(N3CCCC3)ccc12 [APQ, 5-allyloxy-2-(pyrrolidin-1-yl)quinoline] . State its measured half-life. 1.58 h

====

Assay Protocol: Pharmacokinetics after intravenous and oral administration to SD rats
Assay type: in vivo, Sprague-Dawley (SD) male rats
Condition Notes: male, Sprague-Dawley; rat, intravenous, 10 mg/kg, plasma
Metric Name: AUC(0-t)
Hi, when you answer, please include the unit after the number. Thanks!

Consider the compound `C=CCOc1cccc2nc(N3CCCC3)ccc12` . State its measured AUC(0-t). 858 ng·h/mL

====

Assay Protocol: Pharmacokinetics after intravenous and oral administration to SD rats
Assay type: in vivo, Sprague-Dawley (SD) male rats
Condition Notes: male, Sprague-Dawley, plasma; rat, oral, 10 mg/kg
Excerpt: It is well known that the blood–brain barrier (BBB) is a key obstacle impeding the entry of drugs into the brain.
Metric Name: concentration at 8 h

Consider the molecule `C=CCOc1cccc2nc(N3CCCC3)ccc12` . State its measured concentration at 8 h. 0 ng/mL

====

Experimental System: SETDB1 enzyme (Homo sapiens)
Metric Name: IC50 (µM)
Answers are plain numbers, in µM.

Consider the compound C=CCOc1cccc2nc(N3CCCC3)ccc12 [APQ, 5-allyloxy-2-(pyrrolidin-1-yl)quinoline] . State its measured IC50. 65
